- measured.target: HA of ca A/Brit. Columbia/CN-6/04 (H7N3-LP) virus (influenza A virus)
- method.summary: cell-based or functional assay
assay.endpoint: Neutralization IC50, H7-BC04

Per the record, Antibody 11 (antibody, V domains shown) VH: QVQLQQSGPGLVKPSQTLSLTCAISGDSVSSYNAVWNWIRQSPSRGLEWLGRTYYRSGWYNDYAESVKSRITINPDTSKNQFSLQLNSVTPEDTAVYYCARSGHITVFGVNVDAFDMWGQGTMVTVSS VL: DIQMTQSPSSLSASVGDRVTITCRTSQSLSSYTHWYQQKPGKAPKLLIYAASSRLSGVPSRFSGSGSGTDFTLTISSLQPEDFATYYCQQSRTFGQGTKVEIK has Neutralization IC50, H7-BC04 of 0.71 µg/mL

The measurements presented in this section are drawn from patent US20200109188A1.
